- Test system: Liver microsomes
- Test method notes: Metabolic stability of the compound in rat liver microsomes assessed as metabolic rate at 1 uM after 30 mins by LC-MS-MS analysis
- Format: ADME, Microsome
- Run conditions: 0.5 h
Observed property: Drug metabolism (nmol/min/mg)

> print(dat)
                                    compound  observed.property  unit.symbol  recorded.value
 1  COc1ccc(-c2noc(C(Cc3ccc(-c4cc(C(=O)O)on4)cc3)c3ccc(F)cc3)n2)cc1 (stereo not given)    Drug metabolism  nmol/min/mg            0.01
 2  O=C(O)c1csc(-c2ccc(CC(C(=O)c3ccccc3)c3ccccc3)cc2)n1 (stereo not given)    Drug metabolism  nmol/min/mg            0.02
 3  O=C(O)c1cc(-c2ccc(CC(C(=O)c3ccc(F)c(F)c3)c3ccc(F)cc3)cc2)no1 (stereo not given)    Drug metabolism  nmol/min/mg            0.01
 4  O=C(O)c1cc(-c2ccc(CC(C(=O)c3ccc(Cl)cc3)c3ccc(F)c(F)c3)cc2)no1 (stereo not given)    Drug metabolism  nmol/min/mg               0
 5  O=C(O)c1cc(-c2ccc(CC(c3ccccc3)c3nc(-c4ccccc4)no3)cc2)no1 (stereo not given)    Drug metabolism  nmol/min/mg            0.03
 6  O=C(O)c1cc(-c2ccc(CC(C(=O)c3ccccc3)c3ccccc3)cc2)no1 (stereo not given)    Drug metabolism  nmol/min/mg            0.02
 7  O=C(O)c1cc(-c2ccc(CC(C(=O)c3ccc(F)cc3)c3ccc(F)cc3)cc2)no1 (stereo not given)    Drug metabolism  nmol/min/mg            0.02
 8  COc1ccc(C(Cc2ccc(-c3cc(C(=O)O)on3)cc2)c2nc(-c3ccc(Cl)cc3)no2)cc1 (stereo not given)    Drug metabolism  nmol/min/mg            0.03
 9  COc1ccc(C(Cc2ccc(-c3nc(C(=O)O)cs3)cc2)c2nc(-c3cccc(F)c3)no2)cc1 (stereo not given)    Drug metabolism  nmol/min/mg            0.04
10  O=C(O)c1csc(-c2ccc(CC(c3ccc(F)cc3)c3nc(-c4cccc(F)c4)no3)cc2)n1 (stereo not given)    Drug metabolism  nmol/min/mg            0.01

Values were extracted from ChEMBL document CHEMBL2016483.
